These measurements were taken from patent US11447505B1.

tgt: ROCK1 (Homo sapiens (Human), UniProt Q13464)
Sequence (Q13464 2-1354 limits assumed): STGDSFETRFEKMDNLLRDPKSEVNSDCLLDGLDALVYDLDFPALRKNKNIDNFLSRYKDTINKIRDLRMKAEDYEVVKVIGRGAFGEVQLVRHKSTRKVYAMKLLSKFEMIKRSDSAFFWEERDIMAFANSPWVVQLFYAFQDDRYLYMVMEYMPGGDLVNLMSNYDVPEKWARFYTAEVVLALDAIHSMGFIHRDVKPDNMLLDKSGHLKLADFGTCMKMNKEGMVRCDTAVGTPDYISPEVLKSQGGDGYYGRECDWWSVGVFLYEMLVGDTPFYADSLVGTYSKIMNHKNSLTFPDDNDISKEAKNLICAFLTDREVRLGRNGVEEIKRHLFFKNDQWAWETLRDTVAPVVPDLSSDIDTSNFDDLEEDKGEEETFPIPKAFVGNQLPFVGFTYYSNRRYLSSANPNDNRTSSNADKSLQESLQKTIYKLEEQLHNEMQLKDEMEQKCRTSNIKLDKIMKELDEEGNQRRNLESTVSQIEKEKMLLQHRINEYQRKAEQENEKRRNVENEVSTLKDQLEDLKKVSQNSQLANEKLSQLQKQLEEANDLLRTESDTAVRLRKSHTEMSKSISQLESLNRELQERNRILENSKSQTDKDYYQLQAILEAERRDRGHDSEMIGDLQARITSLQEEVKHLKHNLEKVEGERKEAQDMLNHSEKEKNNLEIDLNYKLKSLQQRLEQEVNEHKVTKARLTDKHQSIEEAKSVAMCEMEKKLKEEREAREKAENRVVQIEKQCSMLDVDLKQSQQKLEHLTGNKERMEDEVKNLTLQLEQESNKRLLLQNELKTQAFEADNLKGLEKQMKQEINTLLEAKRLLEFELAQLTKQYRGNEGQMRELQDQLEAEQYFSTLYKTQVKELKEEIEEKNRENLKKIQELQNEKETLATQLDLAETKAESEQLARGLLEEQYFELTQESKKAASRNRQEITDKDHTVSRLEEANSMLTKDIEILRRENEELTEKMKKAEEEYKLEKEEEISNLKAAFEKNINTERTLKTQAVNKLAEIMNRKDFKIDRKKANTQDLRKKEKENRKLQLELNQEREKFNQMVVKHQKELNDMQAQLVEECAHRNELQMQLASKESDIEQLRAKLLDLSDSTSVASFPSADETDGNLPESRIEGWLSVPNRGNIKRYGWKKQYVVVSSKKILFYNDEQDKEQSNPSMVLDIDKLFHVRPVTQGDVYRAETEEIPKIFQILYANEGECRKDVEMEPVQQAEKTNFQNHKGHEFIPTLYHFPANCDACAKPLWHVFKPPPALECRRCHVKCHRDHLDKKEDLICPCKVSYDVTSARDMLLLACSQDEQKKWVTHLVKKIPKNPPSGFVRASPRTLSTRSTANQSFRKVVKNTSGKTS
assayContext: read-out: ROCK1 Average Ki; 1 μM ATP
pKi: −log10 of the molar value.
Criterion: pKi meeting or surpassing 6. Met: Condition met. Not met: Condition not met.

Worked examples follow.
c1cc(-c2c[nH]c3nccc(N4CC[C@@]5(CCCCN5)C4)c23)ncn1 [Example E128]: Condition met
c1ncc(-c2c[nH]c3nccc(N4CCCNCC4)c23)cn1 [Example E44]: Condition met
CN[C@H]1CCCN(c2ccnc3[nH]cc(-c4ncccc4F)c23)C1 [Example E48]: Condition not met

Query string: Quick check: does CNC1CCCN(c2ccnc3[nH]cc(-c4cncnc4)c23)C1 (centres unmarked) [Example E62] have pKi greater than or equal to 6?
Result string: Condition met

Query string: Try this compound next: c1ccc(-c2c[nH]c3nccc(N4CCC4)c23)nc1 [Example E25]
Result string: Condition not met

---

Notes on IC50 obtained with kinase targets listed in tables 3 and 4 (Homo sapiens).
Sequence (Q9BXA7 whole entry, looked up): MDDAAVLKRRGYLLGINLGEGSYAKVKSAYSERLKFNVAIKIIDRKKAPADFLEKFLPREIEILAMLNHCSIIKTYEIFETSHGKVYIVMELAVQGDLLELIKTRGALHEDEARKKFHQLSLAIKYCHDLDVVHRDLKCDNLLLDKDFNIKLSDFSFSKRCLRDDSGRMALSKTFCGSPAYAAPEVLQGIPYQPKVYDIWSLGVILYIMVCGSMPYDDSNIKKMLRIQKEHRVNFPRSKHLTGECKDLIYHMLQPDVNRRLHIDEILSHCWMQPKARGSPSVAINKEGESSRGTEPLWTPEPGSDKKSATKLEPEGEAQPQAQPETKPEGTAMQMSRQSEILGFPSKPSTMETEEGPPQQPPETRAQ
Answers are plain numbers, in nM.

c1cc(-c2c[nH]c3nccc(N4CCC[C@@]5(CCCCN5)C4)c23)ncn1: 287

Switching to the query record.
Query string: Report IC50 for `c1csc(-c2c[nH]c3nccc(N4CCC[C@@]5(CCCCN5)C4)c23)n1` please.
Result string: 4360

---

What Ki was measured for each of the following?
tgt: ROCK2 (Homo sapiens (Human), UniProt O75116)
Sequence (O75116 whole entry): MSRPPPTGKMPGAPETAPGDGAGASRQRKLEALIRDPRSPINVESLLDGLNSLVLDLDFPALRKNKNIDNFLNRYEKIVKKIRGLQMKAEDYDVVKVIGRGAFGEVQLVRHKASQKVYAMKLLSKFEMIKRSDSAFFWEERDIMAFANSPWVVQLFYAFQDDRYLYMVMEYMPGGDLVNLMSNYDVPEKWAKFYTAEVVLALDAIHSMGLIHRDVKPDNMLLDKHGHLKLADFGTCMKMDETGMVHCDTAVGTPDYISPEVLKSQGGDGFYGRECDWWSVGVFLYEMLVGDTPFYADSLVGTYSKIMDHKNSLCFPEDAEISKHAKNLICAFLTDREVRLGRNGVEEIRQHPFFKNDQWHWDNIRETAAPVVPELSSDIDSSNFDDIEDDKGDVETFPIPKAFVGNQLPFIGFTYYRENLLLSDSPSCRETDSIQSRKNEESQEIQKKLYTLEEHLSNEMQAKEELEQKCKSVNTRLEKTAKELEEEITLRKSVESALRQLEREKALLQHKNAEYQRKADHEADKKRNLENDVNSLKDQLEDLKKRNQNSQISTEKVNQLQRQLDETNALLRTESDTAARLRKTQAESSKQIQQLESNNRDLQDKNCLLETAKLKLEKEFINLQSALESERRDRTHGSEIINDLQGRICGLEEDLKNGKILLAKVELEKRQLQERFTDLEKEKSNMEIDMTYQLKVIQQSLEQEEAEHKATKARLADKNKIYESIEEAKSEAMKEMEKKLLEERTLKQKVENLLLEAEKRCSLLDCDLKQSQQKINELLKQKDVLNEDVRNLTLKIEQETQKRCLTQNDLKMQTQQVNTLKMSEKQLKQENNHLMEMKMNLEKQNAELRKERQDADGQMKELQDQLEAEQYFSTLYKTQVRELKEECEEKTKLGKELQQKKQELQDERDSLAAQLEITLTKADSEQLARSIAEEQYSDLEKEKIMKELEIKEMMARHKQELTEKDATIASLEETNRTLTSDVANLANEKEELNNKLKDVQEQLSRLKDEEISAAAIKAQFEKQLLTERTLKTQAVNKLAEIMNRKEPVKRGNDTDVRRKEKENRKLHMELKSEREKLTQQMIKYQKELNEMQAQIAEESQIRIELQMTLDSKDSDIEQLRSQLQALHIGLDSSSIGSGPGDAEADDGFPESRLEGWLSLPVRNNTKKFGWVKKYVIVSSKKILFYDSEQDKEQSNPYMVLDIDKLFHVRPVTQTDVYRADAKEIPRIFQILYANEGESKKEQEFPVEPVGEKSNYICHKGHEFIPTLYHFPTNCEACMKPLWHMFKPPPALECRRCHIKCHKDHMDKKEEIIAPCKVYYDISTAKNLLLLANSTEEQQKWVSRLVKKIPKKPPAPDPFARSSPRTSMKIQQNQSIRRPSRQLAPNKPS
experimentalProtocol: ROCK2 kinase assay (IMAP fluorescence polarization)
Type: biochemical
One number for each entry, in nM.

c1cc(N2CCC3(CCCCN3)C2)c2c(-c3ncsn3)c[nH]c2n1 (stereo not shown): 23.6

For each of the compounds below, state Ki.
1. c1csc(-c2c[nH]c3nccc(N4CC[C@@]5(CCCN5)C4)c23)n1
2. c1cc(N2CCC3(CCCN3)C2)c2c(-c3ccsn3)c[nH]c2n1 (stereo not shown)

Result string:
[30, 14.2]

Query string: Report Ki for `c1csc(-c2c[nH]c3nccc(N4CC[C@@]5(CCCCN5)C4)c23)n1` please.
Result string: 6.41

---

tgt: ROCK2 (Homo sapiens (Human))
experimentalProtocol: ROCK2 kinase assay (IMAP fluorescence polarization)
Type: biochemical
assayContext: 1 μM ATP; read-out: ROCK2 Average Ki
What Ki was measured for each of the following?
Numbers only, in nM.

Check out these entries, answers already filled in.
c1cc(N2CCC2)c2c(-c3cc[nH]n3)c[nH]c2n1 [Example E28]: 9.8
N#Cc1c[nH]c2nccc(N3CCC[C@H]3CO)c12 [Example E38]: 12.7
c1cc(N2CCCC3(CCCCN3)C2)c2c(-c3cnsc3)c[nH]c2n1 (stereo not shown) [Example E114]: 6.42

For each of the compounds below, state Ki.
1. CNC1CCN(c2ccnc3[nH]cc(-c4cncnc4)c23)CC1 [Example E63]
2. Cn1cc(-c2c[nH]c3nccc(N4CCC[C@](N)(N5CCC(N)CC5)C4)c23)cn1 [Example E241]
3. c1cc(-c2c[nH]c3nccc(N4CCC[C@]5(CCCCN5)C4)c23)ncn1 [Example E118]
4. c1ncc(-c2c[nH]c3nccc(OC[C@@H]4CCNC4)c23)cn1 [Example E219]
5. Brc1cnc2[nH]cc(-c3cc[nH]n3)c2c1N1CCCCC1 [Example E70]
6. N#Cc1c[nH]c2nccc(N3CCC3)c12 [Example E240]
7. c1csc(-c2c[nH]c3nccc(O[C@@H]4CCCNC4)c23)n1 [Example E212]

Result string:
1: 91.2; 2: 224; 3: 299; 4: 52.6; 5: 276; 6: 21.6; 7: 7.57

For each of the compounds below, state Ki.
1. NC1CCN(c2ccnc3[nH]cc(-c4cncnc4)c23)CC1 [Example E65]
2. c1ncc(-c2c[nH]c3nccc(NCC4CCCNC4)c23)cn1 (stereo not shown) [Example E239]
3. C[C@H]1CCCN1c1ccnc2[nH]cc(C#N)c12 [Example E111]
4. O[C@@H]1CCCN(c2ccnc3[nH]cc(-c4cncnc4)c23)C1 [Example E100]
5. c1cc(-c2c[nH]c3nccc(N4CCC[C@H](NC5CC5)C4)c23)cnn1 [Example E46]
6. CN(C)c1ccnc2[nH]cc(C#N)c12 [Example E31]
7. Cc1[nH]ncc1-c1c[nH]c2nccc(N3CCCCC3)c12 [Example E104]
8. c1ncc(-c2c[nH]c3nccc(N[C@H]4CCCNC4)c23)cn1 [Example E87]

Result string:
1. 138
2. 93.3
3. 25.5
4. 277
5. 233
6. 24.1
7. 198
8. 326

Query string: # get_value(readout= Ki, system= ROCK2 (Homo sapiens (Human))) for c1ncc(-c2c[nH]c3nccc(N4CCC5(CCCNC5)CC4)c23)cn1 [Example E193]
Result string: 15.2
